# MEASURED_ON: T1, Recombinant Human DLL4 (delta-like protein 4) (human, UniProt Q9NR61 27-524)
# T1 construct: Bought recombinant human DLL4 (R&D Systems Cat#1506-D4/CF); also called rHuman DLL4
# PROCEDURE_TEXT: ECL (MSD) multispot binding assay, antigen spotted on plate, Fab in solution;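 also: purified Fab incubated 1 h at 20 °C, detected via TAG-labelled antibody electrochemiluminescence, antigen spot compared with the blank in the same well, ratio at least 4 counted as hit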
Below, each entry is listed with its recorded Signal/Blank.

BINDER	Signal/Blank
Fab VH1-46_IGHD6-6*01_IGHJ1*01 S102A/S103P/S104F/H111F (APFF) & L6_IGKJ1*01 S31L (Fab, V domains shown, Fab made in E. coli; The constant parts (CH1 with His6 and Flag tags from plasmid A, kappa CL from plasmid C) are not added here; also called APFF & S31L) VH: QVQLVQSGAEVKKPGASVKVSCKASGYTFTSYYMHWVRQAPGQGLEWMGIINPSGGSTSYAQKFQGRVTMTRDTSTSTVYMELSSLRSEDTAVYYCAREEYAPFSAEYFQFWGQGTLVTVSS VL: EIVLTQSPATLSLSPGERATLSCRASQSVSLYLAWYQQKPGQAPRLLIYDASNRATGIPARFSGSGSGTDFTLTISSLEPEDFAVYYCQQRSNWPPWTFGQGTKVEIKR	373
Fab VH1-46_IGHD6-6*01_IGHJ1*01 S102A/S103P/S104F/H111F (APFF) & L6_IGKJ1*01 S30T (Fab, V domains shown, Fab made in E. coli; The constant parts (CH1 with His6 and Flag tags from plasmid A, kappa CL from plasmid C) are not added here; also called APFF & S30T) VH: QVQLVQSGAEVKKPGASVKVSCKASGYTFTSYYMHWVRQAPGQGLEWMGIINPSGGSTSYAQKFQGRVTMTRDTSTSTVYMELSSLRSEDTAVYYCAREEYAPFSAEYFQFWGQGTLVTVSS VL: EIVLTQSPATLSLSPGERATLSCRASQSVTSYLAWYQQKPGQAPRLLIYDASNRATGIPARFSGSGSGTDFTLTISSLEPEDFAVYYCQQRSNWPPWTFGQGTKVEIKR	348
Fab VH1-46_IGHD6-6*01_IGHJ1*01 S102A/S103P/S104F/H111F (APFF) & L6_IGKJ1*01 S31I (Fab, V domains shown, Fab made in E. coli; The constant parts (CH1 with His6 and Flag tags from plasmid A, kappa CL from plasmid C) are not added here; also called APFF & S31I) VH: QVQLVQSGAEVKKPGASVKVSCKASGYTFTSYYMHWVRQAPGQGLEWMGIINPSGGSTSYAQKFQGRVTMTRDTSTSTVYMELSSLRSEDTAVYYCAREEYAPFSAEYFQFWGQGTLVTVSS VL: EIVLTQSPATLSLSPGERATLSCRASQSVSIYLAWYQQKPGQAPRLLIYDASNRATGIPARFSGSGSGTDFTLTISSLEPEDFAVYYCQQRSNWPPWTFGQGTKVEIKR	541
Fab VH1-46_IGHD6-6*01_IGHJ1*01 S102A/S103P/S104F/H111F (APFF) & L6_IGKJ1*01 S31N (Fab, V domains shown, Fab made in E. coli; The constant parts (CH1 with His6 and Flag tags from plasmid A, kappa CL from plasmid C) are not added here; also called APFF & S31N) VH: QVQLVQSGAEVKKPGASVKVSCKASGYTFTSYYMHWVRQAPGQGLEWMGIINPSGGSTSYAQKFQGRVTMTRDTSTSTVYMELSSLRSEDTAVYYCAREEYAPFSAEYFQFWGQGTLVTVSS VL: EIVLTQSPATLSLSPGERATLSCRASQSVSNYLAWYQQKPGQAPRLLIYDASNRATGIPARFSGSGSGTDFTLTISSLEPEDFAVYYCQQRSNWPPWTFGQGTKVEIKR	605

Data credit: patent US20120316071A1
